assay: Tmax in mouse plasma at 50 mg/kg, po; format: ADME, organism-based; set-up: dose 50 mg/kg, route oral

[
  {
    "COMPOUND": "COC(=O)C(CCCN(C)CCCc1nc2ccccc2[nH]1)(c1ccc(Br)cc1)C(C)C (stereo unspecified)",
    "Tmax": "1 h"
  }
]

---

test: Metabolic stability in mouse liver; format: ADME, tissue-based; conditions: liver (preparation not stated)
METRIC: half-life (h)

[
  {
    "MOLECULE": "COC(=O)C(CCCN(C)CCCc1nc2ccccc2[nH]1)(c1ccc(Br)cc1)C(C)C (stereo unspecified)",
    "OBSERVED RESULT": 1
  }
]

Ref: ChEMBL document CHEMBL1155867
